Origin of values: PubChem BioAssay (NCI)

System: SR leukemia
PROTOCOL_DETAILS: NCI-60 one-dose screen, 48 h
SETTINGS: 10 µM unless noted
About 83,000 compounds went through this panel and 20% of them were active in at least one assay; those are over-represented in the sample as a whole. The source made the active and inactive calls. The calls were made as follows: active = growth percent below 10; inactive = the rest.
Classes used: active, inactive

[
  {
    "COMPOUND": "Nc1cc(-c2c[nH]c3ccc(Br)cc23)nc2cc(-c3c[nH]c4ccc(Br)cc34)nn12",
    "TARGET_OF_ASSAY": "SR leukemia",
    "LABEL_CLASS": "active"
  },
  {
    "COMPOUND": "C=C(C=O)[C@@H]1CC[C@]2(COC(C)=O)CC[C@]3(C)C(CC[C@@H]4[C@@]5(C)CC[C@H](OC(C)=O)C(C)(C)[C@@H]5CC[C@]43C)[C@@H]12 (stereo partly drawn)",
    "TARGET_OF_ASSAY": "SR leukemia",
    "LABEL_CLASS": "active"
  },
  {
    "COMPOUND": "O=C(Nc1cccc(Cl)c1)Nc1nc2ccc([N+](=O)[O-])cc2o1",
    "TARGET_OF_ASSAY": "SR leukemia",
    "LABEL_CLASS": "inactive"
  },
  {
    "COMPOUND": "C=C(C)[C@@H]1CC[C@]2(COC)CC[C@]3(C)[C@H](CC[C@@H]4[C@@]5(C)CCCNC(C)(C)[C@@H]5CC[C@]43C)[C@@H]12",
    "TARGET_OF_ASSAY": "SR leukemia",
    "LABEL_CLASS": "active"
  },
  {
    "COMPOUND": "N/C(=N\\C(N)=N\\c1nc2ccccc2s1)c1cccc(F)c1",
    "TARGET_OF_ASSAY": "SR leukemia",
    "LABEL_CLASS": "inactive"
  },
  {
    "COMPOUND": "CCO/C=N/C1=C(C#N)C(c2ccc(Cl)cc2)c2sc3c(C)cccc3c2O1 (stereo not drawn)",
    "TARGET_OF_ASSAY": "SR leukemia",
    "LABEL_CLASS": "inactive"
  },
  {
    "COMPOUND": "COc1ccc2c(c1)c(CC(=O)[Se]CC#N)c(C)n2C(=O)c1ccc(Cl)cc1",
    "TARGET_OF_ASSAY": "SR leukemia",
    "LABEL_CLASS": "active"
  },
  {
    "COMPOUND": "O=C(O)c1ccc(-n2cc(CNc3cccc(Cl)c3)c(-c3ccc(F)cc3)n2)cc1",
    "TARGET_OF_ASSAY": "SR leukemia",
    "LABEL_CLASS": "inactive"
  }
]

###

System: HCT-116 colon
PROTOCOL_DETAILS: NCI-60 one-dose screen, 48 h (100 = growth as untreated, 0 = no growth, -100 = all killed)
SETTINGS: 10 µM unless noted
The panel holds about 83,000 compounds, 20% with a hit somewhere; the sample as a whole holds those more often.
ASSAY_METRIC: growth (%)

[
  {
    "COMPOUND": "Cc1ccc2sc3c(c2c1)OC(N)=C(C#N)C3c1cccc(F)c1 (stereo not given)",
    "TARGET_OF_ASSAY": "HCT-116 colon",
    "TEST_VALUE": -24.6
  },
  {
    "COMPOUND": "CCCCCc1ccc(S(=O)(=O)Nc2cc(-c3csc(NC(=O)CN4CCN(C)CC4)n3)ccc2OC)cc1",
    "TARGET_OF_ASSAY": "HCT-116 colon",
    "TEST_VALUE": -70.8
  },
  {
    "COMPOUND": "Brc1ccccc1/C=N/Nc1nc(N/N=C/c2ccccc2Br)nc(N2CCOCC2)n1",
    "TARGET_OF_ASSAY": "HCT-116 colon",
    "TEST_VALUE": 97.5
  },
  {
    "COMPOUND": "Cc1c(Cl)cccc1S(=O)(=O)Nc1ccc2c(c1)C(=O)N(C1CCC(=O)NC1=O)C2=O (stereo not given)",
    "TARGET_OF_ASSAY": "HCT-116 colon",
    "TEST_VALUE": 107
  },
  {
    "COMPOUND": "CCN1CCN(C(=O)[C@]23CCC(C)(C)C[C@H]2C2=CC[C@@H]4[C@@]5(C)Cc6c([nH]c7ccccc67)C(C)(C)[C@@H]5CC[C@@]4(C)[C@]2(C)CC3)CC1",
    "TARGET_OF_ASSAY": "HCT-116 colon",
    "TEST_VALUE": 77.7
  }
]

###

The compounds listed here are annotated with their growth.
System: SF-295 CNS
PROTOCOL_DETAILS: NCI-60 one-dose screen, 48 h (100 = growth as untreated, 0 = no growth, -100 = all killed)
SETTINGS: 10 µM unless noted
The panel holds about 83,000 compounds, 20% with a hit somewhere; the sample as a whole holds those more often.

[
  {
    "COMPOUND": "CCOC(=O)C(=O)CC(=O)N1C(=S)NC(=O)C1CC(C)C (stereo not given)",
    "UNIT_ANNOTATION": "%",
    "growth": 102
  },
  {
    "COMPOUND": "Cc1nc(-c2ccccc2O)ccc1C(=O)N=Nc1c(O)[nH]c2ccc(Br)cc12",
    "UNIT_ANNOTATION": "%",
    "growth": 104
  },
  {
    "COMPOUND": "Cn1ccnc1C(=O)/C=C/c1ccc(CNC(=O)c2ccc(S(F)(F)(F)(F)F)cc2)cc1",
    "UNIT_ANNOTATION": "%",
    "growth": 26.8
  },
  {
    "COMPOUND": "CCO/C=N/C1=C(C#N)C(c2ccc(OC)cc2)c2sc3c(CC)cccc3c2O1 (stereo not given)",
    "UNIT_ANNOTATION": "%",
    "growth": 3.52
  },
  {
    "COMPOUND": "Cc1cc2ncc(-c3cc4ccccc4c(N4CCN(C)CC4)n3)nc2cc1C",
    "UNIT_ANNOTATION": "%",
    "growth": 10.2
  },
  {
    "COMPOUND": "Cc1cc(C)c(N2C(=O)CC(Nc3ccc(Cl)cc3Cl)C2=O)c(C)c1 (stereo not given)",
    "UNIT_ANNOTATION": "%",
    "growth": 105
  },
  {
    "COMPOUND": "NS(=O)(=O)c1ccc(Nc2nc(N/N=C/c3ccc(Cl)cc3)nc(Nc3ccccc3)n2)cc1",
    "UNIT_ANNOTATION": "%",
    "growth": 58.6
  },
  {
    "COMPOUND": "CNC(=O)c1c(NC(=O)c2ccccc2C(F)(F)F)sc2c1CCC(=O)C2",
    "UNIT_ANNOTATION": "%",
    "growth": 82.2
  },
  {
    "COMPOUND": "CCCCCc1ccc(S(=O)(=O)Nc2cccc(-c3csc(NC(=O)CCCCCN4CCN(C)CC4)n3)c2)cc1",
    "UNIT_ANNOTATION": "%",
    "growth": 85.8
  },
  {
    "COMPOUND": "CCO/C=N/C1=C(C#N)C(c2ccc(F)cc2)c2sc3c(CC)cccc3c2O1 (stereo not given)",
    "UNIT_ANNOTATION": "%",
    "growth": -6.92
  }
]

###

Reported growth is given for each of the following compounds.
Test system: A498 renal
PROTOCOL_DETAILS: NCI-60 one-dose screen, 48 h (100 = growth as untreated, 0 = no growth, -100 = all killed)
SETTINGS: 10 µM unless noted
Compounds without any hit were thinned out: in the full panel of roughly 83,000, 20% have a hit.
ASSAY_METRIC: growth (%)

[
  {
    "TEST_SMILES": "CN1CCN(c2ccc(/C=N/n3cnc4oc(-c5ccccc5)cc4c3=N)cc2)CC1",
    "ASSAY_METRIC": "growth",
    "TEST_VALUE": 81.4
  },
  {
    "TEST_SMILES": "COc1ccc(/C(N)=N/C(N)=N/c2nc3ccccc3s2)cc1",
    "ASSAY_METRIC": "growth",
    "TEST_VALUE": 64.9
  },
  {
    "TEST_SMILES": "Cn1ccnc1C(=O)/C=C/c1ccc(NC(=O)c2ccc(F)cc2)cc1",
    "ASSAY_METRIC": "growth",
    "TEST_VALUE": 78.1
  },
  {
    "TEST_SMILES": "CC(=O)O[C@@H]1C(=O)N(c2cnccn2)[C@H]1c1ccccc1[N+](=O)[O-]",
    "ASSAY_METRIC": "growth",
    "TEST_VALUE": -20.2
  },
  {
    "TEST_SMILES": "COc1cc(/C=C2\\C(=O)Nc3ccccc32)ccc1OCc1ccc(Cl)cc1",
    "ASSAY_METRIC": "growth",
    "TEST_VALUE": 115
  }
]
